test description: small-molecule binders of probe aLefty1, primary screen, biochemical, small-molecule microarray, 635/667 nm fluorescence (AID 1153);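 further: score merges spot fluorescence with signal-to-noise ratio from the scanned slide images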
details: higher = more signal
Answer 0.0 if composite z-score is under 0.009, and 1.0 if it is 0.009 or more.

>  <compound>
C=CC[C@]1(C(=O)N(C)C)COC(c2ccc(OCCCO)cc2)=N1

>  <assigned label>
0.0

$$$$
>  <compound>
Cc1ccc(F)cc1S(=O)(=O)N[C@@H]1CCN(Cc2ccc3c(c2)OCO3)C1

>  <assigned label>
0.0

$$$$
>  <compound>
CC(C)C[C@@H]1NC(=O)[C@H]2C[C@@H](C(=O)NCCCCCCNC(=O)CS)[C@@H](c3ccc(O)cc3)N2C1=O

>  <assigned label>
0.0

$$$$
>  <compound>
COC(=O)[C@@]1(Cc2ccccc2)[C@H]2c3cc(C(=O)N4CCCC4)n(Cc4ccc(C(F)(F)F)nc4)c3C[C@H]2CN1C(=O)c1ccccc1

>  <assigned label>
1.0

$$$$
>  <compound>
Cc1ccc(F)cc1S(=O)(=O)N[C@@H]1CCN(Cc2ccc3[nH]ccc3c2)C1

>  <assigned label>
0.0

$$$$
>  <compound>
COc1ccc(NN2C(C(O)c3ccc(OC)cc3)C=CC3C(=O)N(C4CCCCC4)C(=O)C32)cc1 (stereo unspecified)

>  <assigned label>
1.0

$$$$
>  <compound>
C=CCNC(=O)[C@H]1[C@@H]2C(=O)O[C@@H](c3ccccc3)[C@@H](c3ccccc3)N2[C@@H](c2ccc(O)cc2)[C@]12C(=O)Nc1ccc(C#CC3=CCCCC3)cc12

>  <assigned label>
1.0

$$$$
>  <compound>
CN(C)CCCC[C@@H]1NC(=O)[C@H]2C[C@@H](C(=O)O)[C@@H](c3cccc(OCCO)c3)N2C1=O

>  <assigned label>
1.0

$$$$
>  <compound>
CC(C)(C)OC(=O)CC[C@]1(C(N)=O)N=C(c2ccc(OCCCO)cc2)O[C@H]1c1ccccc1CN=[N+]=[N-]

>  <assigned label>
1.0

$$$$
>  <compound>
C=CC[C@@]12N=C(c3ccc(OCCCO)cc3)O[C@@H]1c1ccccc1N(Cc1ccccc1)C2=O

>  <assigned label>
1.0

$$$$
>  <compound>
CC(=O)c1ccc(C(O)C2C=CC3C(=O)N(C)C(=O)C3N2NC(=O)OC(C)(C)C)cc1 (stereo unspecified)

>  <assigned label>
1.0

$$$$
>  <compound>
CN1C(=O)[C@]2(CCS(=O)(=O)c3ccccc3)N=C(c3ccc(OCCCO)cc3)O[C@@H]2c2ccccc21

>  <assigned label>
1.0

$$$$
>  <compound>
CCCC[C@H]1OB(O)C[C@H]2C1=C(C)C[C@H]1C(=O)C=CC(=O)[C@H]12

>  <assigned label>
0.0

$$$$
>  <compound>
CN(C)CCCCNC(=O)[C@H]1C[C@H]2C(=O)N[C@@H](Cc3ccccc3)C(=O)N2[C@H]1c1cccc(OCCO)c1

>  <assigned label>
1.0

$$$$
>  <compound>
COCCCN1C(=O)[C@@]2(Cc3ccccc31)c1ccccc1C(=O)N(Cc1ccccc1OC)[C@H]2c1ccc(CO)cc1

>  <assigned label>
1.0

$$$$
>  <compound>
COc1ccc([Si](C)(C)[C@H]2[C@H](CCn3cc([C@H](O)c4ccccc4)nn3)O[C@@]3(C(=O)N(c4ccccc4)c4ccccc43)[C@@H]2C)cc1

>  <assigned label>
0.0

$$$$
